# subject-of-test: Interleukin-1 receptor-associated kinase 3 (Homo sapiens, UniProt Q9Y616)
# Sequence (Q9Y616 whole entry): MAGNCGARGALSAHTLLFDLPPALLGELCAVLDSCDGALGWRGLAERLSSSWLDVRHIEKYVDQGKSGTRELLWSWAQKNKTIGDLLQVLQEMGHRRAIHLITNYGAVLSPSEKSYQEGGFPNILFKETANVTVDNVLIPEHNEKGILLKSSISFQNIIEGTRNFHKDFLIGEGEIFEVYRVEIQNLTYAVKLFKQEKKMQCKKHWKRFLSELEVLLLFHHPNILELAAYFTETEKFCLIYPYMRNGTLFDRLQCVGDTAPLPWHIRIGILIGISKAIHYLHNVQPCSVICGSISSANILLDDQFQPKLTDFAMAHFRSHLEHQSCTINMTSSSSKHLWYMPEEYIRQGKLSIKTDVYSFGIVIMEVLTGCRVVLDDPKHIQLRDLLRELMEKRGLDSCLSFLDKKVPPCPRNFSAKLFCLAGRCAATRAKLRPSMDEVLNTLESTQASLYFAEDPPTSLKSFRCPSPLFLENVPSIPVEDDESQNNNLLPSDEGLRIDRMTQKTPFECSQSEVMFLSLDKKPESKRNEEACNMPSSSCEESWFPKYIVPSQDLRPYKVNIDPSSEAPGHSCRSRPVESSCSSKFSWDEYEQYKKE
Calls of active or inactive are those of the source.
Kindly state Kd for each of the entries shown.

{"smiles-data": "O=c1sn(-c2cccc3ccccc23)c(=O)n1Cc1ccccc1", "subject-of-test": "Interleukin-1 receptor-associated kinase 3 (Homo sapiens, UniProt Q9Y616)", "result": "> 30 µM (inactive)"}

The following compounds each have a reported value; give each one's Kd.
1. COc1ccc(-c2ccc3c(N4CCOC[C@@H]4C)nc(N4CCOC[C@@H]4C)nc3n2)cc1CO
2. CO[C@H]1C[C@@H]2CC[C@@H](C)[C@@](O)(O2)C(=O)C(=O)N2CCCC[C@H]2C(=O)O[C@H]([C@H](C)C[C@@H]2CC[C@@H](OCCO)[C@H](OC)C2)CC(=O)[C@H](C)/C=C(\C)[C@@H](O)[C@@H](OC)C(=O)[C@H](C)C[C@H](C)/C=C/C=C/C=C/1C

OUTPUT:
1. > 30 µM (inactive)
2. > 30 µM (inactive)

---

# subject-of-test: Ribosyldihydronicotinamide dehydrogenase [quinone] (Homo sapiens)
# Sequence (P16083 whole entry): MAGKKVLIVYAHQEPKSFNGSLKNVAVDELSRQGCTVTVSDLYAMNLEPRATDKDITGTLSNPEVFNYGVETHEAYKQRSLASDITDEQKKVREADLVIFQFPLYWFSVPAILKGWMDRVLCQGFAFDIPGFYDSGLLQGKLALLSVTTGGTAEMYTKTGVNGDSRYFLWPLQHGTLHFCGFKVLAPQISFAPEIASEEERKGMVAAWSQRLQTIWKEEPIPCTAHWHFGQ
The source made the active and inactive calls.
Returns: one label drawn from active, inactive

Here are 5 compounds together with their reported answers.
{"compound": "Cc1cc2c(F)c(Oc3ncnn4cc(OC[C@@H](C)OC(=O)[C@H](C)N)c(C)c34)ccc2[nH]1 [BRIVANIB ALANINATE]", "discrete-label": "inactive"}
{"compound": "CN1CCC(CNc2ccc3ncc(-c4cccc(OC(F)(F)F)c4)n3n2)CC1", "discrete-label": "inactive"}
{"compound": "Cc1c(F)cc(C(=O)NC2CC2)cc1-c1ccc(C(=O)NCC(C)(C)C)cn1", "discrete-label": "inactive"}
{"compound": "Cc1ccc(-n2nc(C(C)(C)C)cc2NC(=O)NCc2cc(F)ccc2Oc2ccc3c(cnn3CCO)c2)cc1", "discrete-label": "inactive"}
{"compound": "Cc1nc(N)sc1-c1ccnc(Nc2ccc(N3CCOCC3)cc2)n1", "discrete-label": "active"}

INPUT: Hey, what did the test say about Cc1cc(Nc2cc(N3CCN(C)CC3)nc(/C=C/c3ccccc3)n2)n[nH]1 ?
OUTPUT: inactive

INPUT: // param item: CCc1cnn2c(NCc3ccc[n+]([O-])c3)cc(N3CCCC[C@H]3CCO)nc12 ; yields the recorded call
OUTPUT: inactive

INPUT: GET /call?item= COC(=O)N[C@@H](C)CNc1nccc(-c2cn(C(C)C)nc2-c2cc(Cl)cc(NS(C)(=O)=O)c2F)n1 returns the recorded outcome of this test.
OUTPUT: inactive
